Assay: Antiproliferative activity against human MEpiC cells after 48 hrs by MTT assay
Type: cell-based
Parameter: IC50. Scope: all listed entries.
Outcome measure: IC50 (µM)

>>> quantitative_result("O=C1C=CC2(C=C1)OC(=O)C(c1ccc(CO)cc1)=C2c1ccccc1")
3.86
>>> quantitative_result("COc1cc(C2=C(c3ccccc3)C3(C=CC(=O)C=C3)OC2=O)cc(OC)c1OC")
6.61
>>> quantitative_result("O=C1C=CC2(C=C1)OC(=O)C(c1ccc3c(c1)OCO3)=C2c1ccccc1")
34.2
>>> quantitative_result("O=C1C=CC2(C=C1)OC(=O)C(c1ccc(C(=O)O)cc1)=C2c1ccccc1")
10.4
>>> quantitative_result("O=C1C=CC2(C=C1)OC(=O)C(c1cc3ccccc3s1)=C2c1ccccc1")
10.8
>>> quantitative_result("COc1ccc(C2=C(c3ccccc3)C3(C=CC(=O)C=C3)OC2=O)cc1")
11.7
>>> quantitative_result("COc1c(Br)cc(C)cc1C1=C(c2ccccc2)C2(C=CC(=O)C=C2)OC1=O")
14.7
>>> quantitative_result("O=C1C=CC2(C=C1)OC(=O)C(c1ccc(O)cc1)=C2c1ccccc1")
16.8
>>> quantitative_result("O=C1C=CC2(C=C1)OC(=O)C=C2c1ccccc1")
7.67
>>> quantitative_result("O=C1C=CC2(C=C1)OC(=O)C(I)=C2c1ccccc1")
6.33
>>> quantitative_result("O=C1C=CC2(C=C1)OC(=O)C(c1ccc([N+](=O)[O-])cc1)=C2c1ccccc1")
66.5
>>> quantitative_result("O=C1C=CC2(C=C1)OC(=O)C(c1ccc(F)cc1)=C2c1ccccc1")
11.1
>>> quantitative_result("COc1ccc(F)cc1C1=C(c2ccccc2)C2(C=CC(=O)C=C2)OC1=O")
13.5
>>> quantitative_result("N#Cc1ccc(C2=C(c3ccccc3)C3(C=CC(=O)C=C3)OC2=O)cc1")
8.89
>>> quantitative_result("O=Cc1ccc(C2=C(c3ccccc3)C3(C=CC(=O)C=C3)OC2=O)s1")
7.08
>>> quantitative_result("O=C1C=CC2(C=C1)OC(=O)C(c1cc3ccccc3o1)=C2c1ccccc1")
66.5
>>> quantitative_result("COc1ccc(OC(=O)C#Cc2ccccc2)cc1")
19.1

----------
The following compounds are listed with their measured IC50 values.
Tested on: MDA-MB-231
Test: Antiproliferative activity against human MDA-MB-231 cells after 48 hrs by MTT assay
Assay type: functional, cell-based
Conditions: MDA-MB-231, 48 h
Structures can show the parent of a compound that is named as a salt.
Outcome measure: IC50 (µM)

>>> quantitative_result("COc1ccc(OC(=O)C#Cc2ccccc2)cc1")
6.66
>>> quantitative_result("O=C1C=CC2(C=C1)OC(=O)C(c1ccc(F)cc1)=C2c1ccccc1")
38.6
>>> quantitative_result("O=C1C=CC2(C=C1)OC(=O)C(c1ccc(CO)cc1)=C2c1ccccc1")
8.85
>>> quantitative_result("COc1cccc2c1C(=O)c1c(O)c3c(c(O)c1C2=O)C[C@@](O)(C(=O)CO)C[C@@H]3O[C@H]1C[C@H](N)[C@H](O)[C@H](C)O1 [DOXORUBICIN HYDROCHLORIDE]")
4.06
>>> quantitative_result("O=C1C=CC2(C=C1)OC(=O)C(c1ccc(O)cc1)=C2c1ccccc1")
61
>>> quantitative_result("COc1ccc(F)cc1C1=C(c2ccccc2)C2(C=CC(=O)C=C2)OC1=O")
10
>>> quantitative_result("O=C1C=CC2(C=C1)OC(=O)C(c1ccc3c(c1)OCO3)=C2c1ccccc1")
9.12
>>> quantitative_result("O=C1C=CC2(C=C1)OC(=O)C(c1ccc([N+](=O)[O-])cc1)=C2c1ccccc1")
19
>>> quantitative_result("COc1ccc(C2=C(c3ccccc3)C3(C=CC(=O)C=C3)OC2=O)cc1")
64
>>> quantitative_result("O=C1C=CC2(C=C1)OC(=O)C(c1cc3ccccc3s1)=C2c1ccccc1")
32.9
>>> quantitative_result("COc1cc(C2=C(c3ccccc3)C3(C=CC(=O)C=C3)OC2=O)cc(OC)c1OC")
9.73
>>> quantitative_result("O=C1C=CC2(C=C1)OC(=O)C(c1cc3ccccc3o1)=C2c1ccccc1")
21.2
>>> quantitative_result("COc1c(Br)cc(C)cc1C1=C(c2ccccc2)C2(C=CC(=O)C=C2)OC1=O")
9.45
>>> quantitative_result("O=C1C=CC2(C=C1)OC(=O)C=C2c1ccccc1")
15.9
>>> quantitative_result("N#Cc1ccc(C2=C(c3ccccc3)C3(C=CC(=O)C=C3)OC2=O)cc1")
8.74
>>> quantitative_result("O=C1C=CC2(C=C1)OC(=O)C(c1ccc(C(=O)O)cc1)=C2c1ccccc1")
15.2
>>> quantitative_result("O=C1C=CC2(C=C1)OC(=O)C(I)=C2c1ccccc1")
7.51
>>> quantitative_result("O=Cc1ccc(C2=C(c3ccccc3)C3(C=CC(=O)C=C3)OC2=O)s1")
19.8
